assay comment: Toxicity in mouse assessed as mouse survival administered intraperitoneally once daily measured after 19 days
Type: organism-based
conditions: in vivo, ip
endpoint name: MTD at 456 h (mg/kg)
Answer format: numeric, mg/kg implied, no suffix.

CN1C(=O)C(=Cc2cn(Cc3ccccc3)c3ccccc23)C(=O)N(C)C1=O
400

Consider the record given below.
What the record says about O=C1NC(=O)C(=Cc2cn(Cc3ccccc3)c3ccccc23)C(=O)N1 : MTD at 456 h is 50

###

Test system: COLO 205
assay comment: Growth inhibition of human COLO205 cells
Assay type: functional
endpoint name: LC50

Known LC50 results, listed for orientation:
O=C1Nc2ccccc2/C1=C/c1cn(C(=O)c2c(Cl)cccc2Cl)c2ccccc12
54.9 µM
CC1=NN(c2cccc(Cl)c2)C(=O)/C1=C\c1c(O)ccc2ccccc12
> 100 µM
O=C1/C(=C\c2ccccn2)c2ccccc2N1c1c(Cl)cccc1Cl
> 100 µM

Consider the record given below.
What the record says about CC1=NN(c2cccc(Cl)c2)C(=O)/C1=C\C=C\c1ccccc1 : LC50 is > 100 µM
